Assay: in vivo
Parameters: species or system rats
Conditions: male, Sprague-Dawley, rat, po, 40 mg/kg
Measurement name: Tmax (h)
# value in h; strip the unit string

What does the data say about its Tmax? Entry: CC1(C)[C@@H](O)CC[C@]2(C)[C@H]3C(=O)C=C4[C@@H]5C[C@@](C)(C(=O)O)CC[C@]5(C)CC[C@@]4(C)[C@]3(C)CC[C@@H]12 [GA, glycyrrhetinic acid]
2

###

Test: in vivo
Settings: male, Sprague-Dawley, rat, po, 40 mg/kg
Measurement name: half-life (min)
# value in min; strip the unit string

What does the data say about its half-life? Entry: CC1(C)[C@@H](O)CC[C@]2(C)[C@H]3C(=O)C=C4[C@@H]5C[C@@](C)(C(=O)O)CC[C@]5(C)CC[C@@]4(C)[C@]3(C)CC[C@@H]12
595
